# test.system: NAD-dependent protein deacetylase sirtuin-1 (Homo sapiens) (UniProt Q96EB6)
# Sequence (Q96EB6 whole entry): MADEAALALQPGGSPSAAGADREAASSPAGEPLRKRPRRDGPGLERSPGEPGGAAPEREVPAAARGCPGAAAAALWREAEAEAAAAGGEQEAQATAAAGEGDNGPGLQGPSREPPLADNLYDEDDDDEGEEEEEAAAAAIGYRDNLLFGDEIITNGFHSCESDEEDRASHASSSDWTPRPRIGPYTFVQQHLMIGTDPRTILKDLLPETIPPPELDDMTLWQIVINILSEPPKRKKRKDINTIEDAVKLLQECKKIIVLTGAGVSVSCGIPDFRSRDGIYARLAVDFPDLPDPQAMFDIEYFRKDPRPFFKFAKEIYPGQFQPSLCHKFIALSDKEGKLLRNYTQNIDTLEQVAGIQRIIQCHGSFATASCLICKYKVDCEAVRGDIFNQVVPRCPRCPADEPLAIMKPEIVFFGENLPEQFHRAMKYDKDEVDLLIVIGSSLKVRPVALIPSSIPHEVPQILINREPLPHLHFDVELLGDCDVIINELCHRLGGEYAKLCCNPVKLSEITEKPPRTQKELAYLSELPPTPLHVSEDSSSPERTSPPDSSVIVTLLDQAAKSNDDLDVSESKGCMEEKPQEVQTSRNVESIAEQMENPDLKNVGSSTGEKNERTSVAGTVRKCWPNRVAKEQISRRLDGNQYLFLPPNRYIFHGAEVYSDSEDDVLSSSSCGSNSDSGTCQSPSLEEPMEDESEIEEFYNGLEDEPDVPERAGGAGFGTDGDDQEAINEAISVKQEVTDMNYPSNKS
# experiment.summary: Binding affinity to SIRT1 (unknown origin) by surface plasmon resonance assay
# experimental.conditions: filed as activator
Calls of active or inactive are those of the source. The rule behind the calls is not given here.
assay.endpoint: Activity

{"molecule.smiles": "CC(C)Cc1ccc(C(=O)c2ccc(O)c(O)c2O)cc1", "test.system": "NAD-dependent protein deacetylase sirtuin-1 (Homo sapiens) (UniProt Q96EB6)", "Activity": "Active"}
{"molecule.smiles": "CC(C)Cc1ccc(C(=O)c2cc(O)c(O)cc2F)cc1", "test.system": "NAD-dependent protein deacetylase sirtuin-1 (Homo sapiens) (UniProt Q96EB6)", "Activity": "Active"}
{"molecule.smiles": "CC(C)Cc1ccc(C(=O)c2ccc(O)c(O)c2)cc1", "test.system": "NAD-dependent protein deacetylase sirtuin-1 (Homo sapiens) (UniProt Q96EB6)", "Activity": "Active"}
{"molecule.smiles": "CCCCc1ccc(C(=O)c2ccc(O)c(O)c2)cc1", "test.system": "NAD-dependent protein deacetylase sirtuin-1 (Homo sapiens) (UniProt Q96EB6)", "Activity": "Active"}

Kindly consider the entry below.
Request: Using the record for CC(C)(C)c1ccc(C(=O)c2cc(O)c(O)cc2F)cc1 , report its Activity.
Result: Active
